biological target: ACVR2A on primary human myotubes (human, UniProt P27037 20-513); experiment: cell-based or functional assay
Sequence (P27037 20-513): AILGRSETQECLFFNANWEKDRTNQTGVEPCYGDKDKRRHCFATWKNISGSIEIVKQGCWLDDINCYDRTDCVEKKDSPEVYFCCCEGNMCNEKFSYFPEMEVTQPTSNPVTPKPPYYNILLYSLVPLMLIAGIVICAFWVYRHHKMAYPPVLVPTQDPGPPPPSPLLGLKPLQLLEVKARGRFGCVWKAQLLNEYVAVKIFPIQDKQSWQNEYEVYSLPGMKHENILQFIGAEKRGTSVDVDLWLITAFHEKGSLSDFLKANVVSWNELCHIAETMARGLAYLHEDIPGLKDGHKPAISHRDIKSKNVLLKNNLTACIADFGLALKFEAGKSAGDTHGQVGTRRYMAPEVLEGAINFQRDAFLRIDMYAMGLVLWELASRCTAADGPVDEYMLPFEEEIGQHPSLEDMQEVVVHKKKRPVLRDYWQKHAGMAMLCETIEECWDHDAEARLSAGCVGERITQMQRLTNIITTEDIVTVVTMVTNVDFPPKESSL
Observed Property: Phospho-SMAD3 Human Skeletal Muscle GDF8
Write no unit; give the number alone.

Record excerpt, results attached:
{"Binder": "374_G05 (antibody, V domains shown) VH: EVQLLESGGGLVQPGGSLRLSCAASGFTFSSYSMNWVRQAPGKGLEWVSNINYNSGYKGYADSVKGRFTISRDNSKNTLYLQMNSLRAEDTAVYYCARGATWHDTHLDYWGQGTLVTVSS VL: DIQMTQSPSSLSASVGDRVTITCRASQSIISYLNWYQQKPGKAPKLLIYAATSRASGVPSRFSGSGSGTDFTLTISSLQPEDFATYYCQQSYDLPLTFGGGTKVEIK", "Phospho-SMAD3 Human Skeletal Muscle GDF8": 0.0132}
{"Binder": "372_F08 (antibody, V domains shown) VH: EVQLLESGGGLVQPGGSLRLSCAASGFTFSDYSMNWVRQAPGKGLEWVSNINYNSGYTGYADSVKGRFTISRDNSKNTLYLQMNSLRAEDTAVYYCARSANWHDTALDYWGQGTLVTVSS VL: DIQMTQSPSSLSASVGDRVTITCRASQSILTYVNWYQQKPGKAPKLVIYAATSRASGVPSRFSGSGSGTDFTLTISSLQPEDFATYYCQQSYDTPLTFGGGTKVEIK", "Phospho-SMAD3 Human Skeletal Muscle GDF8": 0.023}

Would you kindly look at the next entry?
# return recorded Phospho-SMAD3 Human Skeletal Muscle GDF8 for input 374_B04 (antibody, V domains shown) VH: EVQLLESGGGLVQPGGSLRLSCAASGFTFSSYSMNWVRQAPGKGLEWVSNINYNSGYTGYADSVKGRFTISRDNSKNTLYLQMNSLRAEDTAVYYCARSANWHDTALDYWGQGTLVTVSS VL: DIQMTQSPSSLSASVGDRVTITCRASQSIVSYLNWYQQKPGKAPKLLIYAVTSRASGVPSRFSGSGSGTDFTLTISSLQPEDFATYYCQQSYESPLTFGGGTKVEIK
0.0093
